Attribution: patent US10745397B2

assayed-target: hEP4 (C6 glioma cells overexpressing hEP4) (Homo sapiens)
Construct: host or cells: C6 glioma cells overexpressing hEP4
experiment-description: hEP4 cell based assay (cAMP), inhibition of PGE2 induced cAMP, HTRF
test-settings: 1 μM compound, PGE2 at EC80
Listed next: entries and their corresponding inhibition at 1 µM.
assay-readout: inhibition at 1 µM (%)

compound=C[C@H](Nc1nccc2c1N(Cc1ccc(C(F)(F)F)cc1)CCO2)c1ccc(-c2nnn[nH]2)cc1 unit_of_measurement=% observed=90
compound="CONC(=O)c1ccc([C@H](C)Nc2nccc3c2N(Cc2ccc(C(F)(F)F)cc2)CCO3)cc1 [Example D2]" unit_of_measurement=% observed=92
compound="C[C@H](Nc1nccc2c1N(Cc1ccc(C(F)(F)F)cc1)CCO2)c1ccc(C#N)cc1 [Example E1]" unit_of_measurement=% observed=91

----------
Listed next: entries and their corresponding inhibition at 0.3 µM.
assayed-target: human EP4 receptor (Homo sapiens, UniProt P35408)
Construct: expressed in transfected cells; host or cells: FreeStyle293 (HEK293F) cells, transient transfection with pcDNA3.1(+), total membrane fraction
Sequence (P35408 whole entry): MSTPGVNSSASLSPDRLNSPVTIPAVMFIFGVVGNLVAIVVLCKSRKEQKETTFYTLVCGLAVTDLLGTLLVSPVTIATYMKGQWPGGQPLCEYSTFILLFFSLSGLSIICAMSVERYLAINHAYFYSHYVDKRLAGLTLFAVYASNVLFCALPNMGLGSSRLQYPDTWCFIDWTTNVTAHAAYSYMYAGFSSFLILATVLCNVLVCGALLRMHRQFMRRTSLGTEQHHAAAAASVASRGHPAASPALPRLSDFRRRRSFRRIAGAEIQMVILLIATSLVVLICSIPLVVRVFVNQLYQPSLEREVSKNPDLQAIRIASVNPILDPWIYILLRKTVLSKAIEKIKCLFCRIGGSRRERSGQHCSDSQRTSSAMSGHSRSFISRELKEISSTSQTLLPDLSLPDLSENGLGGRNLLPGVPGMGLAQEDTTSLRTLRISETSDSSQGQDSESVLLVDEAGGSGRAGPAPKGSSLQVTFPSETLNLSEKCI
experiment-description: hEP4 radioligand binding assay ([3H] PGE2 competitive binding, membrane fractions)
test-settings: 300 nM compound; 1 nM [3H] PGE2
assay-readout: inhibition at 0.3 µM (%)

smiles_representation=C[C@H](Nc1nccc2c1N(Cc1ccc(C(F)(F)F)o1)CCO2)c1ccc(C(=O)O)cc1 assay_readout="inhibition at 0.3 µM" observed=92
smiles_representation=C[C@H](Nc1nccc2c1N(Cc1ccc(F)c(F)c1)CCO2)c1ccc(C(=O)O)cc1 assay_readout="inhibition at 0.3 µM" observed=89
smiles_representation=O=C(O)c1ccc(C2(Nc3nccc4c3N(Cc3ccc(C(F)(F)F)cc3)CCO4)CC2)cc1 assay_readout="inhibition at 0.3 µM" observed=92
